System name: T1, human CD45 (human, UniProt P08575 26-1306)
T1 sequence: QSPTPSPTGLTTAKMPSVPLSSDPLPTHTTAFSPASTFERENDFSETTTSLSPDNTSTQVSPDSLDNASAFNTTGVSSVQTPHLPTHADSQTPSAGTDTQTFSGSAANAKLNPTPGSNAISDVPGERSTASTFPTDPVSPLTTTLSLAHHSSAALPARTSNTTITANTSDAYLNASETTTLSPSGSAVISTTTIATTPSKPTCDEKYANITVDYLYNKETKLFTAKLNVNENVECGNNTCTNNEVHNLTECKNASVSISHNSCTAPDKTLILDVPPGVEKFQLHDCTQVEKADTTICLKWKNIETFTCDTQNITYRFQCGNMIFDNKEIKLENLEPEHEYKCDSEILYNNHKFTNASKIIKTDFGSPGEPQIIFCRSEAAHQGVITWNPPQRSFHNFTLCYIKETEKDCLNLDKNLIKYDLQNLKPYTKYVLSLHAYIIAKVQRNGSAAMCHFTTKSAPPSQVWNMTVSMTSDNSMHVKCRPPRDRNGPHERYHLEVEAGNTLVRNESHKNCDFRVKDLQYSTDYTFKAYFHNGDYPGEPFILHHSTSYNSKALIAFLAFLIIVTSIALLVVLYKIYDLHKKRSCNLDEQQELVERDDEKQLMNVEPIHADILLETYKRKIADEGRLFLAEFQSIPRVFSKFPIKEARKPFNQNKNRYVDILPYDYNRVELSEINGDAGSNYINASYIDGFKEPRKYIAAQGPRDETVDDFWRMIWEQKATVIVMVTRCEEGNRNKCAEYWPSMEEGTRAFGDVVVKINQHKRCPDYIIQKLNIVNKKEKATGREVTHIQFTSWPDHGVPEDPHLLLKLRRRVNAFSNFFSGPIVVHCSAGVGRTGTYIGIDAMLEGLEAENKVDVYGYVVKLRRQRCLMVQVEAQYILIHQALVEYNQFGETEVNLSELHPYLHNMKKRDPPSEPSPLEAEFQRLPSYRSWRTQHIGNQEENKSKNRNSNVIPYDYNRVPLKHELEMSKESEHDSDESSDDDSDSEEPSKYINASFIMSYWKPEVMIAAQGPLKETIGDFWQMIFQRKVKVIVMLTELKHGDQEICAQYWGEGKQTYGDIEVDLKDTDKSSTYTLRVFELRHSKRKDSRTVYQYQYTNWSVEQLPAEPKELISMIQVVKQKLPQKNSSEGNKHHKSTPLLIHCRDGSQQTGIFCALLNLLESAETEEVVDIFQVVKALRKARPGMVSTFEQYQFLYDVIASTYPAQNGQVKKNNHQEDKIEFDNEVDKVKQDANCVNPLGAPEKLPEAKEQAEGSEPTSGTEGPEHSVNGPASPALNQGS
Measurement protocol: cell-based or functional assay
EC50, clonogenic assay, CD34+ PBSC (CD45+) listing for selected binders.
Property measured: EC50, clonogenic assay, CD34+ PBSC (CD45+) (pM)

Binder: YTH24.5-hIgG1-AAA-PBD (antibody, DAR 2.08, V domains shown) VH: QVNLLQSGAALVKPGASVKLSCKASSYTFTDYYIHWVKQSHGKTLEWIGYINPKSGFTNYNEKFRRKATLTVDKSTNTAYMDISRLTSEDSATYYCTRRTGVIPMDAWGQGASVTVSS VL: DVVMTQTPVSLSVSLGGQVSISCRSSQSFVSSDGNTYLNWYLQKPGQSPQLLIYKVSNRLSGVPDRFSGSGSGTDFTLKISRVEHDDLGVYYCGQASKIPLTFGSGTKLEIK
Recorded value: 7.9
--
Binder: YTH54.12-rat IgG2b-PBD (drug-linker B1) (antibody, V domains shown, PBD dimer drug-linker B1; light chains unconjugated or attached to a single molecule of B1; sites not given; PBD dimer drug-linker B1 conjugated after TCEP reduction; heavy chains attached to up to five molecules of B1; sites not given; DAR 1.90 (preparation) / 2.00) VH: EVQLVESGGGLVQPGGSMKLSCAASGFTFSDYYMAWVRQAPKKGLEWVASMSFAGSSTYYGDSVKGRFTISRDNAKTTLYLQMNSLRSEDTATYYCARMYTTDYYLYWYFDFWGPGTMVTVSS VL: DVQMTQSPSYLAASPGESVSISCKASKSISNYLAWYQQKPGEANKILIYSGSTLQSGTPSRFSGSGSGTDFSLTIRNLEPEDFAVYYCQQYDEKPLTFGSGTKLEIKR
Recorded value: 23
--
Binder: YTH54.12-hIgG1-AAA-PBD (antibody, DAR 2.10, V domains shown) VH: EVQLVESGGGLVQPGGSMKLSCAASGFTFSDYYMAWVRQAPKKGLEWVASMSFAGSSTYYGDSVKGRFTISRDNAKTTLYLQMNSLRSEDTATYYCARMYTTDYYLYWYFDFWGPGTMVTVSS VL: DVQMTQSPSYLAASPGESVSISCKASKSISNYLAWYQQKPGEANKILIYSGSTLQSGTPSRFSGSGSGTDFSLTIRNLEPEDFAVYYCQQYDEKPLTFGSGTKLEIK
Recorded value: 6.4
--
Binder: YTH24.5-rat IgG2b-PBD (drug-linker B1) (antibody, V domains shown, PBD dimer drug-linker B1; light chains unconjugated or attached to a single molecule of B1; sites not given; PBD dimer drug-linker B1 conjugated after TCEP reduction; heavy chains attached to up to five molecules of B1; sites not given; DAR 1.94 (preparation) / 2.00) VH: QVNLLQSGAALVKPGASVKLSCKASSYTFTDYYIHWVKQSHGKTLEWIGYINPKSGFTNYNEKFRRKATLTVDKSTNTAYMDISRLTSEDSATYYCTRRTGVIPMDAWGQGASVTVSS VL: DVVMTQTPVSLSVSLGGQVSISCRSSQSFVSSDGNTYLNWYLQKPGQSPQLLIYKVSNRLSGVPDRFSGSGSGTDFTLKISRVEHDDLGVYYCGQASKIPLTFGSGTKLEIKR
Recorded value: 16.5
